Test system: human prostate adenocarcinoma PC-3
measurementDescription: Antiproliferative activity, SRB assay, 72 h
Format: cell-based
conditionContext: Homo sapiens; PC-3, 72 h, SRB; read-out: IC50
pIC50: −log10 of the molar value.
quantityMeasured: pIC50

molecule: C=C(C)[C@@H]1CC[C@]2(COC(=O)CC)CC[C@]3(C)C(CCC4[C@@]5(C)CC[C@H](OC(=O)CC(C)(C)C(=O)O)C(C)(C)C5CC[C@]43C)C12 (some centres unmarked)
result: 4.78
--
molecule: C=C(C)[C@@H]1CC[C@]2(COC(=O)C#CC)CC[C@]3(C)C(CCC4[C@@]5(C)CC[C@H](OC(=O)CC(C)(C)CC(=O)O)C(C)(C)C5CC[C@]43C)C12 (some centres unmarked)
result: 4.99
--
molecule: C#CC(=O)OC[C@]12CC[C@@H](C(=C)C)C1C1CCC3[C@@]4(C)CC[C@H](OC(=O)CC(C)(C)C(=O)O)C(C)(C)C4CC[C@@]3(C)[C@]1(C)CC2 (some centres unmarked)
result: 6.07
--
molecule: C=C(C)[C@@H]1CC[C@]2(CO)CC[C@]3(C)[C@H](CC[C@@H]4[C@@]5(C)CC[C@H](O)C(C)(C)[C@@H]5CC[C@]43C)[C@@H]12 [B, betulin, reference compound]
result: 4.29
--
molecule: C#CCCC(=O)OC[C@]12CC[C@@H](C(=C)C)C1C1CCC3[C@@]4(C)CC[C@H](OC(=O)CC(C)(C)C(=O)O)C(C)(C)C4CC[C@@]3(C)[C@]1(C)CC2 (some centres unmarked)
result: 4.68

---

Tested on: human breast cancer MCF-7
measurementDescription: Antiproliferative activity, SRB assay, 72 h
Format: cell-based
conditionContext: Homo sapiens, MCF7; MCF-7, 72 h, SRB; read-out: IC50

molecule: C=C(C)[C@@H]1CC[C@]2(CO)CC[C@]3(C)C(CCC4[C@@]5(C)CC[C@H](OC(=O)CC(C)(C)CC(=O)O)C(C)(C)C5CC[C@]43C)C12 (stereo partly drawn)
IC50, µM: 12.1

molecule: C=C(C)[C@@H]1CC[C@]2(COC(=O)C#CC3CC3)CC[C@]3(C)C(CCC4[C@@]5(C)CC[C@H](OC(=O)CC(C)(C)CC(=O)O)C(C)(C)C5CC[C@]43C)C12 (stereo partly drawn)
IC50, µM: 25.7

molecule: C=C(C)[C@@H]1CC[C@]2(COC(=O)C#CC)CC[C@]3(C)C(CCC4[C@@]5(C)CC[C@H](OC(=O)CC(C)(C)C(=O)O)C(C)(C)C5CC[C@]43C)C12 (stereo partly drawn)
IC50, µM: 25

---

System: human biphenotypic B myelomonocytic leukemia MV4-11
measurementDescription: Antiproliferative activity, MTT assay, 72 h
Format: cell-based
conditionContext: IC50 MCF-10A / IC50 MV4-11
Method: The tested compounds were dissolved in DMSO (dimethyl sulfoxide) to a concentration of 10 mg/mL and then were diluted in the culture medium to reach the final concentrations. […] The IC50 values in µg/mL were calculated to µM. This assay was used against MV4-11 leukemia cells and was performed after 72 h of exposure of the tested agents to the cells. […] After the next 24 h, the absorbance of the samples was measured at a 570 nm wavelength on a Synergy H4 photometer (BioTek Instruments, Winooski, VT, USA). […]
Parameter SI: see the listing below.
quantityMeasured: SI

compound: C=C(C)[C@@H]1CC[C@]2(COC(C)=O)CC[C@]3(C)[C@H](CC[C@@H]4[C@@]5(C)CC[C@H](O)C(C)(C)[C@@H]5CC[C@]43C)[C@@H]12 [A, 28-O-acetylbetulin, reference compound]
testSystem: human biphenotypic B myelomonocytic leukemia MV4-11
result: 3.02
--
compound: C=C(C)[C@@H]1CC[C@]2(CO)CC[C@]3(C)C(CCC4[C@@]5(C)CC[C@H](OC(=O)CC(C)(C)C(=O)O)C(C)(C)C5CC[C@]43C)C12 (some centres unmarked) [Compound 5]
testSystem: human biphenotypic B myelomonocytic leukemia MV4-11
result: 3.43
--
compound: C=C(C)[C@@H]1CC[C@]2(COC(=O)C#CC)CC[C@]3(C)C(CCC4[C@@]5(C)CC[C@H](OC(=O)CC(C)(C)CC(=O)O)C(C)(C)C5CC[C@]43C)C12 (some centres unmarked) [Compound 4c]
testSystem: human biphenotypic B myelomonocytic leukemia MV4-11
result: 10.10
--
compound: C#CCCC(=O)OC[C@]12CC[C@@H](C(=C)C)C1C1CCC3[C@@]4(C)CC[C@H](OC(=O)CCC(=O)O)C(C)(C)C4CC[C@@]3(C)[C@]1(C)CC2 (some centres unmarked) [Compound 6b]
testSystem: human biphenotypic B myelomonocytic leukemia MV4-11
result: 8.68
--
compound: C#CC(=O)OC[C@]12CC[C@@H](C(=C)C)C1C1CCC3[C@@]4(C)CC[C@H](OC(=O)CC(C)(C)C(=O)O)C(C)(C)C4CC[C@@]3(C)[C@]1(C)CC2 (some centres unmarked) [Compound 5a]
testSystem: human biphenotypic B myelomonocytic leukemia MV4-11
result: 21.17
--
compound: C=C(C)[C@@H]1CC[C@]2(CO)CC[C@]3(C)C(CCC4[C@@]5(C)CC[C@H](OC(=O)CCC(=O)O)C(C)(C)C5CC[C@]43C)C12 (some centres unmarked) [Compound 6]
testSystem: human biphenotypic B myelomonocytic leukemia MV4-11
result: 4.94
--
compound: C=C(C)[C@@H]1CC[C@]2(COC(=O)CC)CC[C@]3(C)C(CCC4[C@@]5(C)CC[C@H](OC(=O)CC(C)(C)CC(=O)O)C(C)(C)C5CC[C@]43C)C12 (some centres unmarked) [Compound 4d]
testSystem: human biphenotypic B myelomonocytic leukemia MV4-11
result: 11.73
--
compound: C=C(C)[C@@H]1CC[C@]2(COC(C)=O)CC[C@]3(C)C(CCC4[C@@]5(C)CC[C@H](OC(=O)CCC(=O)O)C(C)(C)C5CC[C@]43C)C12 (some centres unmarked) [Compound 3]
testSystem: human biphenotypic B myelomonocytic leukemia MV4-11
result: 8.82
--
compound: C=C(C)[C@@H]1CC[C@]2(COC(C)=O)CC[C@]3(C)C(CCC4[C@@]5(C)CC[C@H](OC(=O)CC(C)(C)C(=O)O)C(C)(C)C5CC[C@]43C)C12 (some centres unmarked) [Compound 2]
testSystem: human biphenotypic B myelomonocytic leukemia MV4-11
result: 7.70
--
compound: C=C(C)[C@@H]1CC[C@]2(COC(=O)C#CC)CC[C@]3(C)C(CCC4[C@@]5(C)CC[C@H](OC(=O)CC(C)(C)C(=O)O)C(C)(C)C5CC[C@]43C)C12 (some centres unmarked) [Compound 5c]
testSystem: human biphenotypic B myelomonocytic leukemia MV4-11
result: 2.91
--
compound: C#CCCC(=O)OC[C@]12CC[C@@H](C(=C)C)C1C1CCC3[C@@]4(C)CC[C@H](OC(=O)CC(C)(C)CC(=O)O)C(C)(C)C4CC[C@@]3(C)[C@]1(C)CC2 (some centres unmarked) [Compound 4b]
testSystem: human biphenotypic B myelomonocytic leukemia MV4-11
result: 10.20

---

Tested on: human pancreas cancer MiaPaca-2 cells
measurementDescription: Antiproliferative activity, SRB assay, 72 h
Type: cell-based
conditionContext: Homo sapiens, MIA PaCa-2; MiaPaca-1 (so in the source), 72 h, SRB; read-out: IC50

molecule: C=C(C)[C@@H]1CC[C@]2(CO)CC[C@]3(C)[C@H](CC[C@@H]4[C@@]5(C)CC[C@H](O)C(C)(C)[C@@H]5CC[C@]43C)[C@@H]12 [B, betulin, reference compound]
IC50, µM: 144
--
molecule: C#CC(=O)OC[C@]12CC[C@@H](C(=C)C)C1C1CCC3[C@@]4(C)CC[C@H](OC(=O)CCC(=O)O)C(C)(C)C4CC[C@@]3(C)[C@]1(C)CC2 (some centres unmarked)
IC50, µM: 18.5
--
molecule: C=C(C)[C@@H]1CC[C@]2(COC(=O)C#CC)CC[C@]3(C)C(CCC4[C@@]5(C)CC[C@H](OC(=O)CC(C)(C)CC(=O)O)C(C)(C)C5CC[C@]43C)C12 (some centres unmarked)
IC50, µM: 22.7
--
molecule: C=C(C)[C@@H]1CC[C@]2(COC(C)=O)CC[C@]3(C)C(CCC4[C@@]5(C)CC[C@H](OC(=O)CC(C)(C)CC(=O)O)C(C)(C)C5CC[C@]43C)C12 (some centres unmarked)
IC50, µM: 23.6
--
molecule: C=C(C)[C@@H]1CC[C@]2(COC(C)=O)CC[C@]3(C)[C@H](CC[C@@H]4[C@@]5(C)CC[C@H](O)C(C)(C)[C@@H]5CC[C@]43C)[C@@H]12 [A, 28-O-acetylbetulin, reference compound]
IC50, µM: 127

---

System: human prostate adenocarcinoma PC-3
measurementDescription: Antiproliferative activity, SRB assay, 72 h
Assay type: cell-based
conditionContext: Homo sapiens; PC-3, 72 h, SRB; read-out: IC50
quantityMeasured: log10 of IC50 (log10 of the value in µM)

compound: C#CC(=O)OC[C@]12CC[C@@H](C(=C)C)C1C1CCC3[C@@]4(C)CC[C@H](OC(=O)CCC(=O)O)C(C)(C)C4CC[C@@]3(C)[C@]1(C)CC2 (some centres unmarked) [Compound 6a]
log10 of IC50: -0.39

compound: C=C(C)[C@@H]1CC[C@]2(CO)CC[C@]3(C)C(CCC4[C@@]5(C)CC[C@H](OC(=O)CCC(=O)O)C(C)(C)C5CC[C@]43C)C12 (some centres unmarked) [Compound 6]
log10 of IC50: 1.42

compound: C=C(C)[C@@H]1CC[C@]2(CO)CC[C@]3(C)C(CCC4[C@@]5(C)CC[C@H](OC(=O)CC(C)(C)C(=O)O)C(C)(C)C5CC[C@]43C)C12 (some centres unmarked) [Compound 5]
log10 of IC50: 1.43

compound: C=C(C)[C@@H]1CC[C@]2(COC(C)=O)CC[C@]3(C)C(CCC4[C@@]5(C)CC[C@H](OC(=O)CC(C)(C)CC(=O)O)C(C)(C)C5CC[C@]43C)C12 (some centres unmarked) [Compound 1]
log10 of IC50: 1.15

compound: C=C(C)[C@@H]1CC[C@]2(COC(=O)C#CC3CC3)CC[C@]3(C)C(CCC4[C@@]5(C)CC[C@H](OC(=O)CC(C)(C)CC(=O)O)C(C)(C)C5CC[C@]43C)C12 (some centres unmarked) [Compound 4e]
log10 of IC50: 1.18
